Entry source: ChEMBL document CHEMBL1201862

- Test system: OVCAR-4
- test summary: NCI tumour cell line growth inhibition, 48 h
Activity calls are given as the source filed them. Cut-off read from the data, not from the text of the source: active = GI50 up to about 1.1 µM and inactive = higher.
Recorded measurements of GI50, one per entry

{"compound": "NC1CC(=O)c2c(Cl)sc(Cl)c21 (stereo unspecified)", "GI50": "6.44 µM (inactive)"}
{"compound": "COP(=O)(OC)C12CCOCCN1c1ccccc1C2=O (stereo unspecified)", "GI50": "> 100 µM (inactive)"}
{"compound": "NC(=S)NC/C=C/Cl", "GI50": "> 100 µM (inactive)"}
{"compound": "CN(C)c1cccc(NC2=NCCO2)c1", "GI50": "> 100 µM (inactive)"}
{"compound": "CO/C(=C/C(=O)C(Cl)(Cl)Cl)CC/C(=C\\C(=O)C(Cl)(Cl)Cl)OC", "GI50": "19.1 µM (inactive)"}

Now take the following compound into account.
stdin: For the compound C[C@@H]1OC(=O)C[C@H]2CC(=O)N(CCC3CN(C(=O)OCc4ccccc4)c4ccccc43)C[C@@H]21 (stereo partly specified) , what GI50 is on record?
stdout: > 100 µM (inactive)

----------
- Test system: HOP-62
- test summary: NCI tumour cell line growth inhibition, 48 h
Active and inactive are the calls of the source. Cut-off read from the data, not from the text of the source: active = GI50 up to about 1.1 µM and inactive = higher.
Recorded measurements of GI50, one per entry

stdin: For the compound COC(=O)[C@]1(C)CCC[C@@]2(C)C1CC[C@]13C=C(C(C)C)[C@H](CC21)CC3(Cl)C#N (stereo partly specified) , what GI50 is on record?
stdout: 36.3 µM (inactive)

----------
- Test system: RXF 393
- test summary: NCI tumour cell line growth inhibition, 48 h
The source made the active and inactive calls. No stated cut-off is given here; in the data, active = GI50 up to about 1.1 µM and inactive = higher.
Outcome (select one): active, inactive

These recorded examples may help you get a feel for the data.
{"compound": "c1ccc(NNN2NC(c3ccccc3)C2c2ccccc2)cc1 (configuration not stated)", "discrete label": "inactive"}
{"compound": "Cc1ccc(C(=O)N/N=C(\\N=N\\c2ccccc2)c2ccc(N(CCC#N)CCC#N)cc2C)cc1", "discrete label": "inactive"}
{"compound": "O=C(Cn1c(-c2ccccc2)cc2ccccc21)N1CCOCC1", "discrete label": "inactive"}
{"compound": "C[C@@H]1S[C@H](c2c(Cl)cccc2Cl)N2Cc3ccccc3N=C12", "discrete label": "inactive"}
{"compound": "N#CCC(=O)N/N=C(\\C(=O)Nc1ccc(Cl)c(Cl)c1)C1CN(c2ccccc2)N=C1N (configuration not stated)", "discrete label": "inactive"}

stdin: Write down the call the test reported for this compound. Item: C1=C(c2ccccc2)SC(N2CCCCC2)S1 (configuration not stated)
stdout: inactive

stdin: Write down the call the test reported for this compound. Item: Cn1c(=N)n[n+]([O-])c2ccccc21
stdout: inactive

stdin: Write down the call the test reported for this compound. Item: CC1(O)CC(=O)c2c(cc3ccc(-c4c5c(c(O)c6c(O)cccc46)C(=O)CC(C)(O)C5)c(O)c3c2O)C1 (configuration not stated)
stdout: active

stdin: Write down the call the test reported for this compound. Item: CC(=O)c1sc(Nc2nnc(-c3ccc(-c4nnc(Nc5nc(C)c(C(C)=O)s5)o4)cc3)o2)nc1C
stdout: inactive

stdin: Write down the call the test reported for this compound. Item: CC(C)[Si]1(C(C)C)OCC2OC3(CO)C(Oc4nc(=O)ccn43)C2O[Si](C(C)C)(C(C)C)O1 (configuration not stated)
stdout: inactive

----------
- System: HOP-92
- test summary: NCI tumour cell line growth inhibition, 48 h
Counter-ions that a name gives are not always drawn. Calls of active or inactive are those of the source. Rule as the data show it: active = GI50 up to about 1.1 µM and inactive = higher.
Recorded measurements of GI50, one per entry

Record excerpt, results attached:
{"compound": "O=Cc1ccc(-c2ccc(-c3ccc(C=O)s3)o2)s1", "GI50": "> 89.3 µM (inactive)"}
{"compound": "CNNCc1ccc(C(=O)NC(C)C)cc1 [PROCARBAZINE HYDROCHLORIDE]", "GI50": "369 µM (inactive)"}
{"compound": "C[n+]1cn(-c2ccc([N+](=O)[O-])cn2)c2ccccc21", "GI50": "> 100 µM (inactive)"}
{"compound": "Cc1ccc(C2C(Cl)C(=O)N2NC(=O)c2ccc(N)cc2)cc1 (stereo not given)", "GI50": "14.5 µM (inactive)"}
{"compound": "O=C(NCCN(CCNC(=O)c1cccc(=O)n1O)CCN(CCNC(=O)c1cccc(=O)n1O)CCNC(=O)c1cccc(=O)n1O)c1cccc(=O)n1O", "GI50": "> 100 µM (inactive)"}

stdin: For the compound C[C@@H]1OC(=O)C[C@H]2CC(=O)N(CCC3CN(C(=O)OCc4ccccc4)c4ccccc43)C[C@@H]21 (stereo not given in full) , what GI50 is on record?
stdout: > 100 µM (inactive)

stdin: For the compound CC(/C=C/NNC1=NN=C(c2ccccc2)C(c2ccccc2)N1)Sc1ccccc1N (stereo not given) , what GI50 is on record?
stdout: 8.39 µM (inactive)

stdin: For the compound CCCCCOc1ccc(NC2=C(Cl)C(=O)c3c(O)ccc(O)c3C2=O)cc1 , what GI50 is on record?
stdout: 6.85 µM (inactive)

stdin: For the compound O=C1OC(c2ccccc2)=N/C1=C/NC(Cc1c[nH]c2ccccc12)C(=O)O (stereo not given) , what GI50 is on record?
stdout: > 100 µM (inactive)

stdin: For the compound Cc1nnc(SCc2nc(C#N)c(C#N)nc2CSc2nnc(C)s2)s1 , what GI50 is on record?
stdout: 12.9 µM (inactive)

stdin: For the compound O=C(NNC(=O)c1ccncc1)c1ccncc1 , what GI50 is on record?
stdout: > 100 µM (inactive)

stdin: For the compound Nc1ncn([C@H]2C[C@H](O)[C@@H](CO)O2)c(=O)n1 [DECITABINE] , what GI50 is on record?
stdout: 175 µM (inactive)

stdin: For the compound CC1=CC(=O)C(C)(C2=NC(C)(C)CO2)c2ccccc21 (stereo not given) , what GI50 is on record?
stdout: > 100 µM (inactive)

stdin: For the compound CC(C)[Si]1(C(C)C)OCC2OC3(CO)C(Oc4nc(=O)ccn43)C2O[Si](C(C)C)(C(C)C)O1 (stereo not given) , what GI50 is on record?
stdout: 16.5 µM (inactive)

stdin: For the compound N#CCC(=O)N/N=C(\C(=O)Nc1ccc(Cl)c(Cl)c1)C1CN(c2ccccc2)N=C1N (stereo not given) , what GI50 is on record?
stdout: > 100 µM (inactive)

----------
- Tested on: HOP-92
- test summary: NCI tumour cell line growth inhibition, 48 h
The source made the active and inactive calls. Rule as the data show it: active = GI50 up to about 1.1 µM and inactive = higher.
Outcome (select one): true for active, false for inactive

{"molecule": "Nc1ccn(CC(CO)CC(c2ccccc2)P(=O)(O)O)c(=O)n1 (stereo not given)", "assay target": "HOP-92", "discrete label": "false"}

Next molecule, please.
stdin: Write down the call the test reported for this molecule. Item: CO/C(=C/C(=O)C(Cl)(Cl)Cl)CC/C(=C\C(=O)C(Cl)(Cl)Cl)OC
stdout: false

----------
- Tested on: Malme-3M
- test summary: NCI tumour cell line growth inhibition, 48 h
Calls of active or inactive are those of the source. No stated cut-off is given here; in the data, active = GI50 up to about 1.1 µM and inactive = higher.
measured metric: GI50

Record excerpt, results attached:
{"molecule": "CC(/C=C/c1ccc([N+](=O)[O-])o1)=N/N1CC(CN2CCOCC2)OC1=O (stereo unspecified)", "result": "14.7 µM (inactive)"}
{"molecule": "CCOC(=O)N(C)C1(c2ccccc2)CCN(CCCC(=O)c2ccc(F)cc2)CC1", "result": "15.3 µM (inactive)"}
{"molecule": "CC(C)(C)OC(=O)C1=C(O)C(C(=O)OC(C)(C)C)C23CCCCC12C(C(=O)OC(C)(C)C)C(O)=C3C(=O)OC(C)(C)C (stereo unspecified)", "result": "> 100 µM (inactive)"}
{"molecule": "c1ccc(/N=C2/SC(c3ccccc3)(c3ccccc3)c3ccccc32)cc1", "result": "> 100 µM (inactive)"}

stdin: Request: GI50, test system Malme-3M, entry O=c1oc2ccccc2cc1-c1nc2ccccc2c(=O)[nH]1
stdout: > 100 µM (inactive)

stdin: Request: GI50, test system Malme-3M, entry O=C1CC2=CCCC2O1 (stereo unspecified)
stdout: > 100 µM (inactive)

stdin: Request: GI50, test system Malme-3M, entry O=C1/C(=C/c2ccc(O)cc2)NC(=S)N1CN1CCCCC1
stdout: > 100 µM (inactive)

stdin: Request: GI50, test system Malme-3M, entry CCC1CN2CCc3cc(OC)c(OC)cc3C2CC1CC1c2cc(OC)c(OC)cc2CCN1C(=O)C(Cc1c[nH]c2ccccc12)NC(=O)OC(C)(C)C (stereo unspecified)
stdout: 1.74 µM (inactive)

----------
- System: SR
- test summary: NCI tumour cell line growth inhibition, 48 h
The source made the active and inactive calls. Cut-off read from the data, not from the text of the source: active = GI50 up to about 1.1 µM and inactive = higher.
Outcome (select one): active, inactive

These recorded examples may help you get a feel for the data.
{"molecule": "COC(=O)c1ccc2cc(O)c(O)cc2c1", "discrete label": "inactive"}
{"molecule": "CN1c2ccccc2C2=C(c3ccccc3)CC[C@@H](C(=O)N3C4CC5CC[C@@]4(CS3(=O)=O)C5(C)C)[C@@H]21 (some centres not stated)", "discrete label": "inactive"}
{"molecule": "CSC(=O)C[C@@]12O[C@@H]([C@@H](C)C3CCC4[C@@H]5C(O)CC6=CC(=O)C=C[C@]6(C)C5CC[C@@]43C)C[C@](C)(O1)C(C)(C)O2 (some centres not stated)", "discrete label": "inactive"}

Next molecule, please.
stdin: Write down the call the test reported for this molecule. Item: O=c1[nH]c(=O)n([C@H]2CCCO2)cc1F
stdout: inactive
